# experiment: Solubility test of solid dispersions (pH 1.0 hydrochloric acid, pH 6.8 phosphate buffer, FaSSGF, FaSSIF)
# Type: physicochemical
# testConditions: phosphate buffer, 37 °C, pH 6.8, aqueous buffer, thermodynamic from solid, pH 6.8 phosphate buffer solution, 4 h, main drug:carrier 1:3
measurementType: solubility at 4 h

What the record says about `CNC(=O)c1cc(Oc2ccc(NC(=O)Nc3ccc(Cl)c(C(F)(F)F)c3)cc2)ccn1` : solubility at 4 h is < 0.09 µg/mL

====

# experiment: Solubility of sorafenib in different organic solvents
# Assay type: physicochemical
# testConditions: organic solvent, 37 °C, organic solvent or mixture, thermodynamic from solid, methanol-dichloromethane 1:0.5 (v/v), 24 h, 37° C.
measurementType: solubility at 24 h (mg/mL)
Answer with a number only, understood to be in mg/mL.

// solubility at 24 h lookup, compound = `CNC(=O)c1cc(Oc2ccc(NC(=O)Nc3ccc(Cl)c(C(F)(F)F)c3)cc2)ccn1` , result: 19.2

====

# experiment: Solubility test of solid dispersions (pH 1.0 hydrochloric acid, pH 6.8 phosphate buffer, FaSSGF, FaSSIF)
# Format: physicochemical
# testConditions: phosphate buffer, 37 °C, pH 6.8, aqueous buffer, thermodynamic from solid, pH 6.8 phosphate buffer solution, 2 h, main drug:carrier 1:3
# Description: An appropriate amount of solid dispersion (SD) was added to a pH 1.0 hydrochloric acid solution and a pH 6.8 phosphate buffer solution, while keeping the SD in excess, and shaken at 37° C. in a shaker at 300 rpm.
measurementType: solubility at 2 h

So, `CNC(=O)c1cc(Oc2ccc(NC(=O)Nc3ccc(Cl)c(C(F)(F)F)c3)cc2)ccn1` ? Its solubility at 2 h was < 0.09 µg/mL
